FYI, the data here is from PubChem BioAssay (NCI).

# System: NCI-H23 lung
# assay remarks: NCI tumour cell line growth inhibition, 48 h; in the data active = GI50 below about 0.43 µM; inactive = the rest
Hello, when you answer, please use one of the following outcomes: active, inactive

Q. Assay result, entry CN1CCN(c2ccc(-c3ccc4ncc(C#N)c(Nc5ccc(F)c(Cl)c5)c4c3)cc2)CC1 — outcome?
A. inactive

Q. Fill in: this test's call for Cc1onc(-c2c(F)cccc2Cl)c1-c1ncc(-c2ccc(Cl)cc2)o1 is ___
A. inactive

Q. Please state the recorded outcome for this compound: COc1ccc(-c2nn(-c3ccc(NC(=O)c4ccc(Cl)c(C(F)(F)F)c4)cc3)cc2-c2ccncc2)cc1Cl
A. inactive

Q. Could you kindly confirm the outcome this assay logged for CN1CCN(CCCOc2cccc3nc(Nc4ccc(Cl)c(F)c4)ccc23)CC1 ?
A. inactive

Q. Assay outcome for [C-]#[O+].[Cl][Sn]([Cl])[Cl].[Cl][Sn]([Cl])[Cl].[Pt].c1ccc([PH+](c2ccccc2)c2ccccc2)cc1.c1ccc([PH+](c2ccccc2)c2ccccc2)cc1 : what was it?
A. inactive

Q. Entry CCOC(=O)C1=C(C)NC2SC(=O)/C(=C\c3ccccc3Cl)N2C1c1ccccc1 (stereo unspecified) : call = ?
A. inactive

Q. // param item: O=C(/C=C/C12c3ccccc3C(c3ccccc31)C1C(=O)N(c3ccccc3)C(=O)C12)c1ccc(Cl)cc1 (stereo unspecified) ; yields the recorded call
A. inactive

Q. I'd appreciate the recorded outcome for CN(C)c1ccc2c(c1)CN1C(=O)c3ccccc3C1=N2 from this test.
A. inactive

Q. Just curious, what result did O=S(=O)(Nc1cc(Br)c(O)c2ccccc12)c1ccc(F)cc1 get here?
A. inactive

Q. State the result this test recorded for CCCCN(CCCC)c1ccc(C(=N)c2ccc(N(C)C)cc2)cc1 .
A. active

Q. State the result this test recorded for CN(Cc1cnc(N)nc1N)c1ccc(C(=O)O)cc1 .
A. inactive

Q. Called result for COc1cc(-c2nn(-c3ccc(NC(=O)Nc4ccc(Cl)c(Cl)c4)cc3)cc2-c2ccncc2)ccc1Cl
A. inactive

Q. Short answer needed: outcome of this test for Oc1c(C(Nc2cccc3ccccc23)c2ccccc2)ccc2cccnc12 (stereo unspecified) ?
A. inactive

Q. Answer briefly: the call reported for CC[C@@]1(OC(=O)CN)C(=O)OCc2c1cc1n(c2=O)Cc2cc3cc4c(cc3nc2-1)OCO4 in this assay.
A. active

Q. Per the assay record, what outcome was assigned to N#CC(C#N)=Cc1c(-c2ccccc2)[nH]c2ccccc12 ?
A. inactive

Q. Please state the recorded outcome for this compound: O=C(/C=C1\C(=O)N(Cc2ccc([N+](=O)[O-])cc2)c2ccccc21)c1ccc(OCCN2CCCCC2)cc1
A. inactive

###

# Test system: HCT-116 colon
# assay remarks: NCI tumour cell line growth inhibition, 48 h
attribute measured: TGI

Q. So what does the record say about TGI for CC1=CC[C@@H]2C(C)(C)C(=O)CC[C@@]2(C)[C@@H]1COc1ccc2ccc(=O)oc2c1 ?
A. > 100 µM

Q. May I ask what TGI has been recorded for N=CCCN(CCC=N)c1ccc(/C=C2\CN(NC(=O)c3ccc(Cl)cc3)C(c3ccccc3)=N2)cc1 ?
A. > 100 µM

Q. // query TGI value for entry CC1(c2cccc3c2C2(O)C=CC4(CCC32)OCCO4)OCCO1 (stereo unspecified)
A. > 100 µM

Q. Give the measured TGI of NC(=O)c1cc(-c2ccc(-n3ccnc3)cc2)n[nH]c1=O .
A. > 100 µM

Q. Any idea what its TGI is? The compound is C[C@@H](C1CCC2C3C(=CC(=O)[C@@]21C)[C@H](C)[C@]1(CCC(=O)O1)C1OC31)[C@H]1C[C@]2(C)O[C@@](C)(O1)OC2(C)C (stereo partly specified)
A. > 100 µM

Q. Given the entry COc1ccc(C(C#N)NC23CC4CC(CC(C4)C2)C3)cc1OC (stereo unspecified) , report its measured TGI.
A. > 100 µM

Q. Give its TGI value. Item: CC1(C)C(c2ccccc2)=NN(O)c2ccccc21
A. > 100 µM

Q. Item NCCC(=O)N[C@H](Cc1cc(O)c(O)c(SCC(NC(=O)CC[C@H](N)C(=O)O)C(=O)NCC(=O)O)c1)C(=O)O (stereo partly specified) has what recorded TGI?
A. > 50 µM

Q. I would be grateful if you could share the reported TGI for CCNC(C)(C)C(SS)c1ccc(Br)cc1 (stereo unspecified) .
A. > 100 µM

Q. Given the entry COc1cccc(C(=O)Nc2ccc(CN3CCc4nc5cc(OC)c(OC)cc5cc43)cc2)c1 , report its measured TGI.
A. 12.1 µM

Q. Name the recorded TGI for COC(=O)CCC1(C)C2CCC1(C)/C(=N/O)C2 (stereo unspecified) .
A. > 100 µM

Q. Reported TGI for CO[C@H]1[C@@H](O)[C@@H](C)O[C@@H](O[C@H]2CC[C@@]3(C)[C@H](CC[C@@H]4[C@@H]3CC[C@]3(C)[C@@H](C5=CC(=O)OC5)CC[C@]43O)C2)[C@@H]1O : what is it?
A. 0.0275 µM

Q. Would you mind telling me what TGI value was observed for O=C(CCN1CCOCC1)Nc1ccc(F)cc1F ?
A. > 100 µM

Q. Given COc1ccc(OC)c([N+](=O)[O-])c1-c1nc2sccn2c1/C=N/N=C(N)N , state its recorded TGI.
A. > 100 µM

Q. Data request, read-out TGI, for O=C1c2ccccc2NC(c2cc(Cl)cc(Cl)c2O)N1CCc1ccccn1 (stereo unspecified)
A. > 100 µM

Q. Which TGI is listed for Cc1onc(-c2c(F)cccc2Cl)c1-c1ncc(-c2ccc(Cl)cc2)o1 ?
A. > 100 µM

Q. TGI lookup needed for Cc1c(C(=O)CC(=O)C(=O)Nc2c(C(C)C)cccc2C(C)C)[n+](=O)c2ccccc2n1[O-] , thanks.
A. 9.1 µM

Q. Please look up its TGI: CCCCC1Cc2ccccc2-c2n1c1ccccc1[n+]2C (stereo unspecified)
A. > 100 µM

Q. Entry COc1cc(=O)oc(/C=C/C=O)c1C has what TGI?
A. 17.4 µM

Q. Return reported TGI; argument: C[C@]12CCC3c4ccc(O)cc4CC[C@H]3C1CC(=O)N(N)C2=O (stereo partly specified)
A. > 100 µM

Q. Fill blank: measured TGI of the compound CCOC(=O)c1cc(/C=C/C(C)=C/C(=O)OC)oc1-c1ccccc1 is ____.
A. > 100 µM

Q. Give the measured TGI of Cc1c(C)c2c(c(C)c1NC(=O)/C=C\C(=O)O)CCC(C)(CCCC(C)CCCC(C)CCCC(C)C)O2 (stereo unspecified) .
A. 2.54 µM

Q. Quick one: TGI of O=C1NCN(c2ccccc2)C12CCN(CCc1ccc3[nH]c(=S)[nH]c3c1)CC2 ?
A. > 100 µM

Q. Consider the compound COc1ccc(-c2cc(-c3ccccc3)n(C3OCC(OC(C)=O)C(OC(C)=O)C3OC(C)=O)c(=S)c2C#N)cc1 (stereo unspecified) and give its measured TGI.
A. > 100 µM

Q. Look at this compound and give its reported TGI. C[n+]1noc(/N=N\[O-])c1-c1cc(-c2c(/N=N\[O-])on[n+]2C)cc(-c2c(/N=N/[O-])on[n+]2C)c1
A. > 100 µM

Q. Would you mind telling me what TGI value was observed for COc1ccc(C2=C(Cl)c3cc(OC)c(OC)cc3C2=O)cc1OC ?
A. 15.2 µM

Q. I'd like to know its TGI. The compound in question is C[C@@]12c3c4ccc(C=O)c3Oc3ccc(C=O)c(c31)Oc1c(C=O)ccc(c12)O4
A. > 100 µM

Q. Look up TGI for this compound: Oc1ccc(Cl)cc1-c1[nH]c(=S)nc(-c2ccccc2)c1Cl
A. > 100 µM

Q. What value of TGI has been recorded for this entry: N#Cc1nc(C2CC2)oc1N
A. > 100 µM

Q. Which measured TGI value corresponds to O=C(O)CN=C(C(=NCC(=O)O)c1ccccc1)c1ccccc1 ?
A. > 100 µM

Q. Can you look up the measured TGI of C=C[C@@H](OCOCC[Si](C)(C)C)[C@@H](CC)OC(CCCOC(=O)C(C)(C)C)OC (stereo partly specified) for me?
A. 52.8 µM

Q. Which TGI reading was recorded for the compound O=C(c1ccccc1)C(c1ccccc1)C1(O)C(=O)Nc2ccccc21 (stereo unspecified) ?
A. > 100 µM

Q. Can you share its TGI? I mean this compound: Cc1nc(Cl)c(Cl)c(Cl)n1
A. 0.24 µM

Q. Given O=C(CC(=O)c1ccc([N+](=O)[O-])cc1)C(=O)Nc1nccs1 , state its recorded TGI.
A. > 100 µM

Q. What value of measured TGI is listed for COc1cccc(/C(CC(O)(C(F)(F)F)C(F)(F)F)=N\N(C)C)c1 ?
A. > 100 µM

Q. For the compound NC(=O)c1cc(-c2ccncc2)cc(-c2ccccc2)c1N , what TGI is on record?
A. > 25 µM

Q. Endpoint output: TGI of CC1=NN(c2nc(N)nc(/C(C#N)=C/c3ccc([N+](=O)[O-])o3)n2)C(C)(C)C1 . Value?
A. 2.94 µM

Q. Requested read-out: TGI. Entry: CC(CN(C)C)C(=O)c1ccccc1C(=O)O (stereo unspecified)
A. > 100 µM

Q. Value lookup for TGI; key = COc1cc(-c2n/c(=C\c3c(O)[nH]c4ccc(Cl)cc34)cc3c2=Nc2ccccc2-3)cc(OC)c1OC
A. 0.595 µM

Q. Need TGI, item CC1(C)OCC2(CO1)CSCCCSCC1(COC(C)(C)OC1)CSCCCSC2
A. > 100 µM

Q. Quick check: TGI of COc1ccc(C2=Nc3ccccc3SC(C)C2)cc1 (stereo unspecified) ?
A. 33 µM
